Ref: patent EP1652858A1

tested-on: HLA-A0201 (human)
test-description: competition vs labelled reference peptide
study-conditions: remark: other sources report otherwise
endpoint-label: Ki (nM)

1) IMAKNEVFCV (modifications not checked) | 199
2) YIPLVGAPL (modifications not checked) | 337
3) IMACMSADL (modifications not checked) | 66
4) ALAHGVRVL (modifications not checked) | 674
5) SVFTGLTHI (modifications not checked) | 101
6) DLCGSVFLV (modifications not checked) | 789
7) NLPGCSFSI (modifications not checked) | 83
8) WLGNIIMYA (modifications not checked) | 33
